Please provide measured remaining activity for the entries that follow.
# Target Or System: Phospholipase D2 (Homo sapiens) (UniProt O14939)
# Sequence (O14939 whole entry, looked up): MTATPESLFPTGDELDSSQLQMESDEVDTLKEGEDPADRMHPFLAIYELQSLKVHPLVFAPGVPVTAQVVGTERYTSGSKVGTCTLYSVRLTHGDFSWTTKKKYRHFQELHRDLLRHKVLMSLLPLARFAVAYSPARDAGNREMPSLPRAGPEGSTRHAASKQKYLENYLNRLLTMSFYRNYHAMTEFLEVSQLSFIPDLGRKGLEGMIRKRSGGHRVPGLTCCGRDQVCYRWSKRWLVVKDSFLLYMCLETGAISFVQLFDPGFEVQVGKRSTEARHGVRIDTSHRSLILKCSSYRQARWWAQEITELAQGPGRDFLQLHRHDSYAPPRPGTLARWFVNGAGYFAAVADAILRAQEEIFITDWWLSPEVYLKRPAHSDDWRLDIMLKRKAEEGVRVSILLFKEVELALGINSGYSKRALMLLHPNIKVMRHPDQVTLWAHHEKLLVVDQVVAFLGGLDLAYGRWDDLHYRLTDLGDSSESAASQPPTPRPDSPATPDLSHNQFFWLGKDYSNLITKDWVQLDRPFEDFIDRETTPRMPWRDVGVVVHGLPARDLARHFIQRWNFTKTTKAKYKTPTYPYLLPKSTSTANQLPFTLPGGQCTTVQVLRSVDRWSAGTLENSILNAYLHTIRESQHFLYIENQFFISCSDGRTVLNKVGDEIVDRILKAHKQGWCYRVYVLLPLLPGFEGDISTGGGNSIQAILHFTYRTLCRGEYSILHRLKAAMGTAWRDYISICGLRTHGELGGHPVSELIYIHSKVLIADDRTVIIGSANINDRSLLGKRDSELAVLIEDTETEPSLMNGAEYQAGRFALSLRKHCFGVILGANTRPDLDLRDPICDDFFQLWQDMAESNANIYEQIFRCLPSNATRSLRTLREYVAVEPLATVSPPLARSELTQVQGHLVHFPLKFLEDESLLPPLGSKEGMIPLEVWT
# Sequence (O14939 whole entry, looked up): as above
# Test Name: cellular phospholipase D2 activity inhibition – cell-based, HEK293, single concentration (AID 602143);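 note: tested at 200 nM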
# Experimental Context: HEK293 cellular PLD2 activity, percent of control; hits give low values
Numbers only, in %.

These recorded examples may help you get a feel for the data.
> print(dat)
                               smiles.entry   measured.endpoint  endpoint.unit  number
1  O=C(c1cnc2ccccc2c1)N1CCC[C@@H]1CN1CCC2(CC1)C(=O)NCN2c1ccccc1  remaining activity              %     106
2  O=C(c1ccc2ccccc2c1)N1CC(N2CCC(n3c(=O)[nH]c4ccccc43)CC2)C1  remaining activity              %    64.3
3  C[C@@H](CN1CCC2(CC1)C(=O)NCN2c1ccc(F)c(F)c1)NC(=O)c1cc2cc(F)ccc2[nH]1  remaining activity              %    4.81
4  O=C(NCCN1CCC2(CC1)C(=O)NCN2c1ccc(F)cc1)c1ccc2ccccc2c1  remaining activity              %    34.3

Below is a list of molecules. For each, state its recorded remaining activity.
1. O=C(c1cnc2ccccc2c1)N1CC(N2CCC(n3c(=O)[nH]c4ccccc43)CC2)C1
2. O=C(CN1CCC2(CC1)C(=O)NCN2c1ccccc1)c1ccccc1
3. O=C(c1ccc2ccccc2c1)N1CC(N2CCC3(CC2)C(=O)NCN3c2ccccc2)C1
4. CC(C)[C@@H](CN1CCC2(CC1)C(=O)NCN2c1ccccc1)NC(=O)c1ccc(Cl)cc1
5. O=C(NCCN1CCC2(CC1)C(=O)NCN2c1cccc(F)c1)c1cc2cc(F)ccc2[nH]1
6. CC(C)(C)C(=O)NCCN1CCC2(CC1)C(=O)NCN2c1cccc(F)c1

Reply |
1. 77.3
2. 106
3. 72.6
4. 59.4
5. 0.401
6. 74.9

###

# Target Or System: Phospholipase D2 (Homo sapiens) (UniProt O14939)
# Test Name: cellular phospholipase D2 activity inhibition – cell-based, HEK293, single concentration (AID 602143);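 note: tested at 200 nM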
# Experimental Context: HEK293 cellular PLD2 activity, percent of control; hits give low values
Decision: remaining activity beneath 70% gives satisfied; remaining activity meeting or exceeding 70% gives not satisfied.

Example cases with answers are listed next.
> print(dat)
                               smiles.entry                          target.or.system   answer.label
1  O=C(NCCN1CCC2(CC1)C(=O)NCN2c1ccc(F)c(F)c1)c1cc2cc(F)ccc2[nH]1  Phospholipase D2 (Homo sapiens) (UniProt O14939)      satisfied
2  O=C(NCCN1CCC2(CC1)C(=O)NCN2c1ccccc1)c1cc(=O)c2cc(Br)ccc2o1  Phospholipase D2 (Homo sapiens) (UniProt O14939)  not satisfied
3  CC(C)[C@@H](CN1CCC2(CC1)C(=O)NCN2c1ccccc1)NC(=O)c1ccc(F)cc1  Phospholipase D2 (Homo sapiens) (UniProt O14939)  not satisfied
4  O=C(NCCN1CCC2(CC1)C(=O)NCN2c1ccccc1)c1cc2cccnc2s1  Phospholipase D2 (Homo sapiens) (UniProt O14939)  not satisfied
5  O=C(NCCN1CCC2(CC1)C(=O)NCN2c1ccccc1)c1cccc(Cl)n1  Phospholipase D2 (Homo sapiens) (UniProt O14939)      satisfied
6  O=C(NCCN1CCC2(CC1)C(=O)NCN2c1cccc(F)c1)c1ccc2c(c1)C(=O)OC2=O  Phospholipase D2 (Homo sapiens) (UniProt O14939)      satisfied
7  O=C(NCCN1CCC2(CC1)C(=O)NCN2c1ccc(F)c(F)c1)c1ccc(F)cc1  Phospholipase D2 (Homo sapiens) (UniProt O14939)      satisfied
8  O=C(NCCN1CCC2(CC1)C(=O)NCN2c1ccc(F)c(F)c1)c1ccc(Cl)cc1  Phospholipase D2 (Homo sapiens) (UniProt O14939)      satisfied

Ask | For this molecule, is remaining activity lower than 70%? O=C(NCCN1CCC2(CC1)C(=O)NCN2c1cccc(F)c1)c1cnc2ccccc2c1
Reply | satisfied

Ask | Does O=C(NCCN1CCC2(CC1)C(=O)NCN2c1cccc(F)c1)c1cc(C(F)(F)F)ccc1C(F)(F)F have remaining activity strictly under 70%?
Reply | not satisfied

Ask | Is the reported remaining activity for O=C(NCCN1CCC2(CC1)C(=O)NCN2c1ccccc1)c1ccc2c(c1)C(=O)OC2=O strictly below 70%?
Reply | not satisfied

Ask | is_below(remaining activity, 70%) for O=C(CCN1CCC2(CC1)C(=O)NCN2c1ccccc1)Nc1ccc(F)c(F)c1 ?
Reply | not satisfied

###

# Target Or System: Phospholipase D2 (Homo sapiens) (UniProt O14939)
# Test Name: cellular phospholipase D2 activity inhibition – cell-based, HEK293, single concentration (AID 602143);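 note: tested at 200 nM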
# Experimental Context: HEK293 cellular PLD2 activity, percent of control; hits give low values
Measured Endpoint: remaining activity (%)
One number for each entry, in %.

> print(dat)
                               smiles.entry   measured.endpoint  number
1  C[C@H](CN1CCC2(CC1)C(=O)NCN2c1ccccc1)NC(=O)c1cc2cc(F)ccc2[nH]1  remaining activity       0
2  O=C(NCCN1CCC2(CC1)C(=O)NCN2c1ccccc1)c1ccc2c(c1)OCO2  remaining activity      90
3  O=C(NCCN1CCC2(CC1)C(=O)NCN2c1cccc(F)c1)C1CCCCC1  remaining activity      91
4  O=C(NCCN1CCC2(CC1)C(=O)N(Cc1ccccc1)c1ccccc12)c1ccc2ccccc2c1  remaining activity    70.6
5  O=C(Cc1cccs1)NCCN1CCC2(CC1)C(=O)NCN2c1cccc(F)c1  remaining activity    77.8

Answer for every listed entry: what is its remaining activity? The entries follow.
1. O=C(NCCN1CCC2(CC1)C(=O)NCN2c1ccc(F)cc1)c1cc2cc(F)ccc2[nH]1
2. COc1cc(OC)cc(C(=O)NCCN2CCC3(CC2)C(=O)NCN3c2cccc(F)c2)c1
3. O=C(NCCN1CCC2(CC1)C(=O)NCN2c1ccc(Br)cc1)c1cc2cc(F)ccc2[nH]1
4. O=C(N[C@@H](Cc1ccccc1)CN1CCC2(CC1)C(=O)NCN2c1ccccc1)c1ccc(F)c(F)c1

Reply |
1. 14.3
2. 84.7
3. 23.7
4. 102

###

# Target Or System: Phospholipase D2 (Homo sapiens)
# Test Name: cellular phospholipase D2 activity inhibition – cell-based, HEK293, single concentration (AID 602143);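 note: tested at 200 nM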
# Experimental Context: HEK293 cellular PLD2 activity, percent of control; hits give low values
Measured Endpoint: remaining activity (%)
Give bare numbers, in %.

Here is how some molecules turned out for remaining activity.
> print(dat)
                               smiles.entry                 target.or.system  number
1  O=C(NCCN1CCC2(CC1)C(=O)NCN2c1ccc(F)cc1)c1cnc2ccccc2c1  Phospholipase D2 (Homo sapiens)      24
2  O=C(NCCN1CCC2(CC1)C(=O)NCN2c1ccc(Cl)cc1)c1ccc2ccccc2c1  Phospholipase D2 (Homo sapiens)    54.4
3  C[C@H](CN1CCC2(CC1)C(=O)NCN2c1ccccc1)NC(=O)c1ccc(F)cc1  Phospholipase D2 (Homo sapiens)    81.7
4  CCCCOc1ccc(C(=O)NCCN2CCC3(CC2)C(=O)NCN3c2cccc(F)c2)cc1  Phospholipase D2 (Homo sapiens)    95.2
5  O=C1c2ccccc2C(=O)N1CCN1CCC2(CC1)C(=O)NCN2c1ccccc1  Phospholipase D2 (Homo sapiens)    86.5

Batch: remaining activity for all items listed.
1. O=C(NCCCCCCN1CCC2(CC1)C(=O)NCN2c1ccccc1)c1ccc2ccccc2c1
2. CCC(=O)N[C@@H](C)CN1CCC2(CC1)C(=O)NCN2c1ccccc1

Reply |
133
95.3
